# Procedure Details: Sodium nitrite infusion into the brachial artery, forearm blood flow by venous-occlusion plethysmography
# Study Conditions: human, in vivo, 0.36 μmol/min, mean venous nitrite level after low-dose infusion, at rest, low dose, five-minute infusion; baseline 176±17
Value Kind: concentration at 5 min (nM)
Unit nM implied. Number only.

Respond only with concentration at 5 min recorded for O=NO [sodium nitrite] 2560

====

# Procedure Details: Sodium nitrite infusion into the brachial artery, forearm blood flow by venous-occlusion plethysmography
# Study Conditions: both, human, in vivo, 36 μmol/min, nitrite level in the ipsilateral antecubital vein (regional forearm nitrite concentration), 36 μmol/min into brachial artery, 5 min, 18 healthy subjects
Value Kind: concentration at 5 min

Respond only with concentration at 5 min recorded for O=NO [sodium nitrite] ~222 µM
